Give NADPH fluorescence slope for every item shown.
targetOfAssay: Voltage-gated potassium channel subunit beta-2 (Rattus norvegicus)
runDescription: KvBeta positive modulators, primary screen, biochemical, NADPH fluorescence (AID 623);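 further: fluorescence intensity change per second fitted from 20 to 320 s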
conditionsUsed: Recombinant KvBeta, NADPH fluorescence decrease slope, 10 min; at 10 µM; stronger effect = lower value
Calls of active or inactive are those of the source.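 How the source made its calls: active means NADPH fluorescence slope more negative than the mean of all samples by about 3 SD, 99.7% confidence; inactive means the rest.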

input: Param item = CCN(CC)CCN1C(=O)C(=O)/C(=C(/O)c2ccc(OC)cc2)C1c1ccco1 (configuration not stated) ; retrieve measured NADPH fluorescence slope.
output: -6.6e-05 (inactive)

Please state, for each entry, its recorded NADPH fluorescence slope.
1. CCOC(=O)Cn1nc(C)c2ccccc2c1=O
2. O=C(Nc1cccc(O)c1)c1ccccc1
3. COC(=O)c1ccccc1NC(=O)C1COc2ccccc2O1 (configuration not stated)
4. N#C/C(=C(/O)CN1CCOCC1)c1nc2ccccc2s1

output:
1. -0.000104 (inactive)
2. 5e-06 (inactive)
3. -5.2e-05 (inactive)
4. 4.4e-05 (inactive)

Please state, for each entry, its recorded NADPH fluorescence slope.
1. CCCc1ccc(S(=O)(=O)NCCc2ccncc2)cc1
2. COC(=O)c1cc(OC)c(OC)cc1NC(=O)c1ccc(Br)o1
3. CCOc1ccc(NC(=O)C2CC(=O)N(CC)C(=Nc3ccc4c(c3)OCO4)S2)cc1 (configuration not stated)
4. CC(C)Cn1c(N)c(C(=O)COC(=O)c2ccc3c(c2)OCCO3)c(=O)n(C)c1=O
5. COCCNC(=O)CN1CCN(C(c2ccccc2)c2ccccc2)CC1
6. Cc1cc(CC(=O)O)c(C)cc1CC(=O)O
7. CCOC(=O)Cc1c(C)c2c(O)cc(O)cc2oc1=O
8. Cc1ccc2c(C)nc(NC3=NCN(C(C)C)CN3)nc2c1

output:
-2.4e-05 (inactive)
-4.6e-05 (inactive)
-6.3e-05 (inactive)
-6.3e-05 (inactive)
-4.9e-05 (inactive)
-0.000138 (inactive)
6.3e-06 (inactive)
1.2e-05 (inactive)

Please state, for each entry, its recorded NADPH fluorescence slope.
1. CC1(C)Cc2c(c(N3CCCCC3)[nH]c(=S)c2C#N)CS1
2. COc1ccc(CNC(=O)c2cc3c(=O)n4ccccc4nc3n(Cc3ccco3)c2=N)cc1
3. C=CCSc1nc(N)c2c(C)c(C)sc2n1
4. CC(=O)N(C(C)=O)c1c(C#N)c(C)n(-c2ccccc2)c1C(=O)c1ccccc1
5. CCc1[nH]nc2c1C1(CCN(C(=O)OCc3ccccc3)CC1)C(C#N)=C(N)O2
6. CCc1ccc(N2CC(C(=O)OCC(=O)NC3CCS(=O)(=O)C3)CC2=O)cc1 (configuration not stated)
7. CCc1cc(=O)oc2cc(C)c(CN3CCCCC3)c(O)c12

output:
["-0.000148 (inactive)", "-6e-07 (inactive)", "1.5e-05 (inactive)", "-3.8e-05 (inactive)", "-4.5e-05 (inactive)", "7e-05 (inactive)", "-6.3e-05 (inactive)"]

Please state, for each entry, its recorded NADPH fluorescence slope.
1. Nc1nc2n(n1)C(c1ccc(F)cc1)CC(c1ccc(F)cc1)N2 (configuration not stated)
2. O=C(c1ccco1)N1CCN(c2cccc(Cl)c2)CC1
3. CCN(CC)CC(C)CNC(=O)CC(C(=O)N1CCc2ccccc21)n1ccnc1 (configuration not stated)

output:
1: -5.2e-05 (inactive); 2: -7.7e-05 (inactive); 3: 6.1e-05 (inactive)

Please state, for each entry, its recorded NADPH fluorescence slope.
1. O=C(NCc1ccco1)c1ccc(=O)[nH]n1
2. COCCNC(=O)C1CCCN(c2ncccn2)C1 (configuration not stated)
3. Cc1ccc(CCSCC(=O)O)cn1
4. Cc1sc(NC(=O)CSc2nnc(COc3ccccc3)n2C)c(C#N)c1C
5. Cc1ccc(C(=O)C2=C(O)C(=O)N(CCN3CCOCC3)C2c2ccccn2)o1 (configuration not stated)
6. COc1ccc2[nH]c(C)c(C(=O)CN3CCOCC3)c2c1
7. O=C(c1ccc2c(c1)OCO2)N1CCCN(C(=O)c2ccc3c(c2)OCO3)CC1
8. CCCN(CC1CC1)C(=O)Nc1ccccc1C

output:
1. -4.2e-05 (inactive)
2. -6.8e-05 (inactive)
3. -1.1e-05 (inactive)
4. 5.1e-06 (inactive)
5. -0.0001 (inactive)
6. -6.6e-05 (inactive)
7. -0.0001 (inactive)
8. 3.7e-05 (inactive)

Please state, for each entry, its recorded NADPH fluorescence slope.
1. C=CCN(C(=O)CCC(=O)O)C1CC(=O)N(c2ccc(OC)cc2)C1=O (configuration not stated)
2. CCOc1cccc(-c2nnc3sc(COc4ccc(OC)cc4)nn23)c1
3. COC(=O)CSc1cc(C)nc(NC(C)=O)n1
4. CCC(C)(C)n1nnnc1C(c1cc2cc(OC)ccc2[nH]c1=O)N1CCc2ccccc21 (configuration not stated)

output:
["-3.4e-05 (inactive)", "-3.1e-05 (inactive)", "-4.5e-05 (inactive)", "-4.5e-05 (inactive)"]

Please state, for each entry, its recorded NADPH fluorescence slope.
1. Cc1cc(C)n(-c2ncnc3sc(C)c(C)c23)n1
2. CCN(CC)CCN1C(=O)c2ccccc2NC1c1cc(OC)c(OC)c(OC)c1 (configuration not stated)

output:
1: -3.5e-05 (inactive); 2: -1.4e-05 (inactive)

Please state, for each entry, its recorded NADPH fluorescence slope.
1. O=C(C1=C(O)C(=O)N(CCCN2CCOCC2)C1c1ccccn1)c1cc2ccccc2o1 (configuration not stated)
2. CN(C(=O)COc1cc(=O)n(C)c2ccccc12)c1ccc(Br)cc1

output:
-0.000374 (active)
-1.3e-05 (inactive)

----------
runDescription: inhibitors of mutant huntingtin aggregation, primary screen, imaging, exon1htt(103Q)mCFP cells, high-content imaging (AID 483);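 further: compound exposure lasted 3 days before fixation; percent of the per-plate median nuclei count of sample wells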
conditionsUsed: exon1htt(103Q)mCFP cell line, aggregate imaging, at 2 µM; measured here: cell count, toxicity
Give nuclei count for every item shown.
Answers are plain numbers, in %.

// below: answered molecules
input: Param item = Cn1c(=O)oc2cc(S(=O)(=O)N3CCN(c4ccccn4)CC3)ccc21 ; retrieve measured nuclei count.
output: 116

input: Param item = CC(C)c1ncc(C(O)c2cccc3ccccc23)n1C (centres undefined) ; retrieve measured nuclei count.
output: 75.8

input: Param item = CCCOc1ccc(C2C(C(=O)OC)=CN(CCOC)C=C2C(=O)OC)cc1 ; retrieve measured nuclei count.
output: 116

input: Param item = CCc1nnc(NC(=O)c2cc3ccccc3oc2=O)s1 ; retrieve measured nuclei count.
output: 96.9

input: Param item = Cc1cccc(-n2c(=O)cc(N3CCN(c4ccc(F)cc4)CC3)[nH]c2=O)c1 ; retrieve measured nuclei count.
output: 50.1

Please state, for each entry, its recorded nuclei count.
1. CCOC(=O)c1ccccc1NC(=O)c1cc2sccc2n1C
2. Cc1ccccc1-n1c(=O)cc(N2CCN(C(=O)c3ccco3)CC2)[nH]c1=O
3. CCOC(=O)C1CCN(c2c(N(C)Cc3ccco3)c(=O)c2=O)CC1
4. O=C(CN1CCN(Cc2ccc3c(c2)OCO3)CC1)Nc1ccc2c(c1)OCCO2
5. O=C(NC1CCCCC1)C(c1ccccc1)N(Cc1ccco1)C(=O)Cn1cnc2ccccc21 (centres undefined)
6. COc1ccccc1C(=O)n1nc(-c2ccc(Cl)cc2)nc1N
7. O=C(C1CCCCC1)N1CCC(c2nc3c(nnn3Cc3ccccc3Cl)c(=O)[nH]2)CC1
8. CN(C)S(=O)(=O)NC(c1ccccc1)c1ccccc1

output:
1. 107
2. 116
3. 103
4. 75.7
5. 114
6. 104
7. 110
8. 102

Please state, for each entry, its recorded nuclei count.
1. c1ccc(-n2ncc3c(NC4CCCCCC4)ncnc32)cc1
2. COc1cccc(-c2nc3n(n2)C(c2cccs2)C(C(=O)Nc2cccnc2)=C(C)N3)c1 (centres undefined)
3. CC(C)N(C(=O)CSc1nnc(NC(=O)C2CCC2)s1)C(C)C
4. O=C(NC1CCCc2ccccc21)c1ccc(CNc2c(N3CCOCC3)c(=O)c2=O)cc1 (centres undefined)
5. CCCc1nnc2n1N=C(c1ccc(-c3cc(Cl)ccc3Cl)o1)CS2
6. COc1ccc(N2CCN(C(=O)C(OC(C)=O)c3ccccc3)CC2)cc1 (centres undefined)
7. O=C(CSc1n[nH]c(-c2ccco2)n1)Nc1sc2c(c1C(=O)Nc1ccccc1)CCCC2
8. Cc1cc(C)c(S(=O)(=O)Nc2cccnc2)c(C)c1

output:
1. 115
2. 111
3. 86.3
4. 51.3
5. 100
6. 92.4
7. 88.7
8. 119

Please state, for each entry, its recorded nuclei count.
1. CC(C)Cn1c(=O)c(C(=O)Nc2ccccc2S(N)(=O)=O)c(O)c2ccccc21
2. COc1ccc(-c2ccc(-c3noc(-c4ccccc4OC)n3)c(OC)n2)cc1
3. CC(=O)Nc1cccc(NC(=O)c2ccco2)c1
4. O=C(CCN1CCc2ccccc2C1)Nc1ccc2c(c1)OCO2
5. O=C1CN(C(=O)COC(=O)c2ccccc2NC(=O)c2ccco2)c2ccccc2N1
6. NCCCCCc1nnc(SC/C=C/c2ccccc2)o1
7. Cc1ccc(-c2nc(CS(=O)CC(=O)NCCN(CC(C)C)CC(C)C)c(C)o2)cc1 (centres undefined)

output:
[99.4, 86.6, 122, 96.1, 108, 69.1, 134]

Please state, for each entry, its recorded nuclei count.
1. O=C(CN(Cc1ccco1)C(=O)CNS(=O)(=O)c1ccc(F)cc1)NCCc1ccccc1
2. CCOC(=O)c1c(C)oc2c1c1c(c3ccccc32)OCN(Cc2cccnc2)C1
3. Cc1ccc(NC2=NCC(=O)N2c2ccc3c(c2)OCCO3)c(C)c1
4. CC(C)CCn1c(NCCc2ccccc2)nc2c1c(=O)n(C)c(=O)n2C
5. O=C(Nc1ccccc1)C1=C(O)CC(c2ccoc2)CC1=Nc1ccccc1 (centres undefined)
6. N#Cc1cc2ccccc2nc1SCC(=O)Nc1ccccc1N1CCOCC1
7. COC(=O)c1cc2ccsc2n1Cc1nc(-c2ccc(OC)cc2)oc1C
8. CCN1CCN(C(CNC(=O)c2ccc3c(c2)OCO3)c2cccnc2)CC1 (centres undefined)

output:
[92.1, 100, 116, 120, 94.4, 100, 120, 98]
